Reported Ki, Kappa-type opioid receptor (Homo sapiens, UniProt P41145).

Illustrative cases are given below, each with its answer.
compound: C=CCOC(=O)[C@@H]1C[C@H](OC(C)=O)C(=O)[C@H]2[C@@]1(C)CC[C@H]1C(=O)O[C@H](c3ccoc3)C[C@]21C
Ki: > 1000 nM
//
compound: C#CCCCOC(=O)[C@@H]1C[C@H](OC(C)=O)C(=O)[C@@H]2[C@@]3(C)C[C@@H](c4ccoc4)OC(=O)[C@H]3CC[C@]21C
Ki: > 1000 nM
//
compound: CC(=O)O[C@H]1C[C@@H](C(=O)NCC(=O)OCc2ccccc2)[C@]2(C)CC[C@H]3C(=O)O[C@H](c4ccoc4)C[C@]3(C)[C@H]2C1=O
Ki: 470 nM

Next:
Requested read-out Ki, target or system Kappa-type opioid receptor (Homo sapiens, UniProt P41145), entry "CC(=O)O[C@H]1C[C@@H](C(=O)NN2CCC(C)CC2)[C@]2(C)CC[C@H]3C(=O)O[C@H](c4ccoc4)C[C@]3(C)[C@H]2C1=O"
> 1000 nM

====

# study.system: Kappa-type opioid receptor (Homo sapiens, UniProt P41145)
# Sequence (P41145 whole entry): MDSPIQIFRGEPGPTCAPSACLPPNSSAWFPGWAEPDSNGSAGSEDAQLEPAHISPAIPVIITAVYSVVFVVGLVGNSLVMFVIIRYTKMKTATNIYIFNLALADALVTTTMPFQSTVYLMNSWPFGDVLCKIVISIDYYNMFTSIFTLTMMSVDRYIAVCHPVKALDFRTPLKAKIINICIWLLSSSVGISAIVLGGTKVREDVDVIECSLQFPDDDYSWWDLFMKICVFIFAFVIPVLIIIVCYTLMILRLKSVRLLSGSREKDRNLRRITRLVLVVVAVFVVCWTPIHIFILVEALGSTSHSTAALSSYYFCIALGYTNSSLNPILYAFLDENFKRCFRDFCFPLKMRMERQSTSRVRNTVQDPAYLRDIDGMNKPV
pKi: −log10 of the molar value.
recorded.metric: pKi

molecule: CC(=O)O[C@H]1C[C@@H](C(=O)NC(CO)C(=O)OCc2ccccc2)[C@]2(C)CC[C@H]3C(=O)O[C@H](c4ccoc4)C[C@]3(C)[C@H]2C1=O (some centres not stated)
study.system: Kappa-type opioid receptor (Homo sapiens, UniProt P41145)
pKi: < 6.00

Look at this molecule and give its reported pKi. "CCCCCOC(=O)[C@@H]1C[C@H](OC(C)=O)C(=O)[C@H]2[C@@]1(C)CC[C@H]1C(=O)O[C@H](c3ccoc3)C[C@]21C"
< 6.00

pKi lookup needed for "CC(=O)O[C@H]1C[C@@H](C(=O)NCc2ccccc2)[C@]2(C)CC[C@H]3C(=O)O[C@H](c4ccoc4)C[C@]3(C)[C@H]2C1=O" , thanks.
< 6.00

What does the record list as pKi for CC(=O)O[C@H]1C[C@@H](C(=O)NC(Cc2c[nH]cn2)C(=O)OCc2ccccc2)[C@]2(C)CC[C@H]3C(=O)O[C@H](c4ccoc4)C[C@]3(C)[C@H]2C1=O (some centres not stated) ?
< 6.00

Endpoint output: pKi of "CC(=O)O[C@H]1C[C@@H](C(=O)NC2CC2)[C@]2(C)CC[C@@H]3C(=O)O[C@H](c4ccoc4)C[C@]3(C)[C@H]2C1=O" . Value?
6.32

Value lookup for pKi; key = CC(=O)O[C@H]1C[C@@H](C(=O)N2CCCC2C(=O)OCc2ccccc2)[C@]2(C)CC[C@H]3C(=O)O[C@H](c4ccoc4)C[C@]3(C)[C@H]2C1=O (some centres not stated)
6.68

pKi for "CC(=O)O[C@H]1C[C@@H](C(=O)NCCO)[C@]2(C)CC[C@H]3C(=O)O[C@H](c4ccoc4)C[C@]3(C)[C@H]2C1=O" ?
< 6.00

GET /values?readout=pKi&item= "CCOC(=O)[C@@H]1C[C@H](OC(C)=O)C(=O)[C@H]2[C@@]1(C)CC[C@H]1C(=O)O[C@H](c3ccoc3)C[C@]21C"
7.55

pKi for "CC(=O)O[C@H]1C[C@@H](C(=O)NCCc2ccccc2)[C@]2(C)CC[C@H]3C(=O)O[C@H](c4ccoc4)C[C@]3(C)[C@H]2C1=O" ?
< 6.00

====

# study.system: Kappa-type opioid receptor (Homo sapiens)
pKi: −log10 of the molar value.
Item-by-item account of pKi

Recorded pKi, per entry:
test.smiles: CCOC(=O)[C@@H]1C[C@H](OC(C)=O)C(=O)[C@@H]2[C@@]3(C)C[C@@H](c4ccoc4)OC(=O)[C@H]3CC[C@]21C
pKi: < 6.00
--
test.smiles: CC(=O)O[C@H]1C[C@@H](C(=O)NCCC#N)[C@]2(C)CC[C@H]3C(=O)O[C@H](c4ccoc4)C[C@]3(C)[C@H]2C1=O
pKi: < 6.00

Now consider a different compound.
Please provide the recorded pKi for "CC(=O)O[C@H]1C[C@@H](C(=O)NN2CCOCC2)[C@]2(C)CC[C@H]3C(=O)O[C@H](c4ccoc4)C[C@]3(C)[C@H]2C1=O" , tested on Kappa-type opioid receptor (Homo sapiens).
< 6.00

====

Observed pKi, system Kappa-type opioid receptor (Homo sapiens, UniProt P41145).
pKi: −log10 of the molar value.

Kindly state the measured pKi obtained for "CCCCCCCCOC(=O)[C@@H]1C[C@H](OC(C)=O)C(=O)[C@H]2[C@@]1(C)CC[C@H]1C(=O)O[C@H](c3ccoc3)C[C@]21C" with Kappa-type opioid receptor (Homo sapiens, UniProt P41145).
< 6.00

Which pKi is reported with Kappa-type opioid receptor (Homo sapiens, UniProt P41145) for this entry: "C#CCCOC(=O)[C@@H]1C[C@H](OC(C)=O)C(=O)[C@H]2[C@@]1(C)CC[C@H]1C(=O)O[C@H](c3ccoc3)C[C@]21C" ?
< 6.00

I'm curious: which pKi was measured for "CC(=O)O[C@H]1C[C@@H](C(=O)OCc2ccccc2)[C@]2(C)CC[C@H]3C(=O)O[C@H](c4ccoc4)C[C@]3(C)[C@H]2C1=O" tested on Kappa-type opioid receptor (Homo sapiens, UniProt P41145)?
< 6.00

# query: pKi | item "COCOC(=O)[C@@H]1C[C@H](OC(C)=O)C(=O)[C@@H]2[C@@]3(C)C[C@@H](c4ccoc4)OC(=O)[C@H]3CC[C@]21C" | system: Kappa-type opioid receptor (Homo sapiens, UniProt P41145)
6.96

Test system Kappa-type opioid receptor (Homo sapiens, UniProt P41145); read-out pKi; what value for CC(=O)O[C@H]1C[C@@H](C(=O)NC(C)C(=O)OCc2ccccc2)[C@]2(C)CC[C@H]3C(=O)O[C@H](c4ccoc4)C[C@]3(C)[C@H]2C1=O (some centres undefined) ?
7.57

Field: pKi (Kappa-type opioid receptor (Homo sapiens, UniProt P41145)). Entry: "CCCOC(=O)[C@@H]1C[C@H](OC(C)=O)C(=O)[C@H]2[C@@]1(C)CC[C@H]1C(=O)O[C@H](c3ccoc3)C[C@]21C"
< 6.00

Any idea what pKi came out for "CC(=O)O[C@H]1C[C@@H](C(=O)O)[C@]2(C)CC[C@@H]3C(=O)O[C@H](c4ccoc4)C[C@]3(C)[C@H]2C1=O" on Kappa-type opioid receptor (Homo sapiens, UniProt P41145)?
7.31

So what pKi did "CC(=O)O[C@H]1C[C@@H](C(=O)O)[C@]2(C)CC[C@H]3C(=O)O[C@H](c4ccoc4)C[C@]3(C)[C@H]2C1=O" get with Kappa-type opioid receptor (Homo sapiens, UniProt P41145)?
< 6.00

Please provide the recorded pKi for "CCCCOC(=O)[C@@H]1C[C@H](OC(C)=O)C(=O)[C@H]2[C@@]1(C)CC[C@H]1C(=O)O[C@H](c3ccoc3)C[C@]21C" , tested on Kappa-type opioid receptor (Homo sapiens, UniProt P41145).
< 6.00

====

# study.system: Kappa-type opioid receptor (Homo sapiens, UniProt P41145)
pKi: −log10 of the molar value.
Each entry below carries its recorded pKi.

compound: CC(=O)O[C@H]1C[C@@H](C(=O)N2CCCC2C(=O)OCc2ccccc2)[C@]2(C)CC[C@@H]3C(=O)O[C@H](c4ccoc4)C[C@]3(C)[C@H]2C1=O (stereo partly drawn)
recorded.metric: pKi
test.value: < 6.00
//
compound: CC(=O)O[C@H]1C[C@@H](C(=O)NC(C)C(=O)OCc2ccccc2)[C@]2(C)CC[C@@H]3C(=O)O[C@H](c4ccoc4)C[C@]3(C)[C@H]2C1=O (stereo partly drawn)
recorded.metric: pKi
test.value: < 6.00

Could you now consider this next compound?
Request: pKi, test system Kappa-type opioid receptor (Homo sapiens, UniProt P41145), entry "CC(=O)O[C@H]1C[C@@H](C(=O)NC2CC2)[C@]2(C)CC[C@H]3C(=O)O[C@H](c4ccoc4)C[C@]3(C)[C@H]2C1=O"
< 6.00
